- tested on: Adenosine receptor A1 (Homo sapiens) (UniProt P30542)
- Sequence (P30542 whole entry): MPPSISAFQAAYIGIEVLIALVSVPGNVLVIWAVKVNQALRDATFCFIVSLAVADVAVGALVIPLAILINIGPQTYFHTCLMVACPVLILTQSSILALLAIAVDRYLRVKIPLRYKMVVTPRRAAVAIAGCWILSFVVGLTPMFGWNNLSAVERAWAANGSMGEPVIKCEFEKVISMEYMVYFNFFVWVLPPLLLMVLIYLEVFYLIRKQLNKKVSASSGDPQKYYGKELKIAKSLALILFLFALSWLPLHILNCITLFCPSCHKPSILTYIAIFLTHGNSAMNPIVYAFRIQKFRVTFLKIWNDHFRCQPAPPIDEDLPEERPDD
- assay info: Displacement of [3H]-DPCPX from human adenosine A1 receptor expressed in CHO cells at 1 uM by scintillation counting analysis relative to control
- Assay type: cell-based
measured quantity: inhibition

Task: Using the record for Nc1nc(Cc2cccc(Cl)c2)nc2cn(-c3ccccc3)nc12 , state its measured inhibition.
Output: 32%

Task: Using the record for Nc1nc(Cc2ccc(O)cc2)nc2cn(-c3ccccc3)nc12 , state its measured inhibition.
Output: 39%

Task: Using the record for Cc1cccc(Cc2nc(N)c3nn(-c4ccccc4)cc3n2)c1 , state its measured inhibition.
Output: 41%

Task: Using the record for Cc1ccc(Cc2nc(N)c3nn(-c4ccccc4)cc3n2)cc1 , state its measured inhibition.
Output: 38%

All figures here come from ChEMBL document CHEMBL3352340.
